Data provenance: ChEMBL document CHEMBL5346961

- Assay Notes: Metabolic stability in human liver microsomes assessed as clearance at 1 uM in presence of NADPH-regenerating system by LC-MS/MS analysis
- Format: ADME, Microsome
Measured CLH, listed per entry.
Endpoint Name: CLH (mL/min/g)

>>> df
                                   molecule  reading
0  CC(C)NC(=O)N(C)c1cnc2ccc(-c3ccc(OCCCN4CCCCC4)nc3C#N)cc2n1      5.1
1  C=CCNC(=O)N(C)c1cnc2ccc(-c3ccc(OCCCN(C)C)nc3)cc2n1       55
2  CN(C)CCCOc1ccc(-c2ccc3ncc(NC(=O)NC4CCCCC4)nc3c2)cn1      293
3  CC(C)NC(=O)N(C)c1cnc2ccc(-c3ccc(OCCC4CCCN4C)nc3)cc2n1 (centres undefined)       51
4  COCc1ccc(-c2ccc3ncc(C(N)=O)c(N[C@@H](C)C4CCOCC4)c3c2)cn1      7.2
5  CC(C)NC(=O)N(C)c1cnc2ccc(-c3ccc(OCCCN4CCCC4)nc3)cc2n1      5.2
6  CN(C)CCCOc1ccc(-c2ccc3ncc(NC(=O)NC(C)(C)C)nc3c2)cn1      185
7  CC(C)NC(=O)N(C)c1cnc2ccc(-c3ccc(OCCCN4CCCC4)nc3F)cc2n1      6.8
8  CC(C)NC(=O)N(C)c1cnc2ccc(-c3ccc(OCCCCN(C)C)nc3)cc2n1       60

----------
- Study Target: Serine-protein kinase ATM (Homo sapiens)
- Sequence (Q13315 whole entry): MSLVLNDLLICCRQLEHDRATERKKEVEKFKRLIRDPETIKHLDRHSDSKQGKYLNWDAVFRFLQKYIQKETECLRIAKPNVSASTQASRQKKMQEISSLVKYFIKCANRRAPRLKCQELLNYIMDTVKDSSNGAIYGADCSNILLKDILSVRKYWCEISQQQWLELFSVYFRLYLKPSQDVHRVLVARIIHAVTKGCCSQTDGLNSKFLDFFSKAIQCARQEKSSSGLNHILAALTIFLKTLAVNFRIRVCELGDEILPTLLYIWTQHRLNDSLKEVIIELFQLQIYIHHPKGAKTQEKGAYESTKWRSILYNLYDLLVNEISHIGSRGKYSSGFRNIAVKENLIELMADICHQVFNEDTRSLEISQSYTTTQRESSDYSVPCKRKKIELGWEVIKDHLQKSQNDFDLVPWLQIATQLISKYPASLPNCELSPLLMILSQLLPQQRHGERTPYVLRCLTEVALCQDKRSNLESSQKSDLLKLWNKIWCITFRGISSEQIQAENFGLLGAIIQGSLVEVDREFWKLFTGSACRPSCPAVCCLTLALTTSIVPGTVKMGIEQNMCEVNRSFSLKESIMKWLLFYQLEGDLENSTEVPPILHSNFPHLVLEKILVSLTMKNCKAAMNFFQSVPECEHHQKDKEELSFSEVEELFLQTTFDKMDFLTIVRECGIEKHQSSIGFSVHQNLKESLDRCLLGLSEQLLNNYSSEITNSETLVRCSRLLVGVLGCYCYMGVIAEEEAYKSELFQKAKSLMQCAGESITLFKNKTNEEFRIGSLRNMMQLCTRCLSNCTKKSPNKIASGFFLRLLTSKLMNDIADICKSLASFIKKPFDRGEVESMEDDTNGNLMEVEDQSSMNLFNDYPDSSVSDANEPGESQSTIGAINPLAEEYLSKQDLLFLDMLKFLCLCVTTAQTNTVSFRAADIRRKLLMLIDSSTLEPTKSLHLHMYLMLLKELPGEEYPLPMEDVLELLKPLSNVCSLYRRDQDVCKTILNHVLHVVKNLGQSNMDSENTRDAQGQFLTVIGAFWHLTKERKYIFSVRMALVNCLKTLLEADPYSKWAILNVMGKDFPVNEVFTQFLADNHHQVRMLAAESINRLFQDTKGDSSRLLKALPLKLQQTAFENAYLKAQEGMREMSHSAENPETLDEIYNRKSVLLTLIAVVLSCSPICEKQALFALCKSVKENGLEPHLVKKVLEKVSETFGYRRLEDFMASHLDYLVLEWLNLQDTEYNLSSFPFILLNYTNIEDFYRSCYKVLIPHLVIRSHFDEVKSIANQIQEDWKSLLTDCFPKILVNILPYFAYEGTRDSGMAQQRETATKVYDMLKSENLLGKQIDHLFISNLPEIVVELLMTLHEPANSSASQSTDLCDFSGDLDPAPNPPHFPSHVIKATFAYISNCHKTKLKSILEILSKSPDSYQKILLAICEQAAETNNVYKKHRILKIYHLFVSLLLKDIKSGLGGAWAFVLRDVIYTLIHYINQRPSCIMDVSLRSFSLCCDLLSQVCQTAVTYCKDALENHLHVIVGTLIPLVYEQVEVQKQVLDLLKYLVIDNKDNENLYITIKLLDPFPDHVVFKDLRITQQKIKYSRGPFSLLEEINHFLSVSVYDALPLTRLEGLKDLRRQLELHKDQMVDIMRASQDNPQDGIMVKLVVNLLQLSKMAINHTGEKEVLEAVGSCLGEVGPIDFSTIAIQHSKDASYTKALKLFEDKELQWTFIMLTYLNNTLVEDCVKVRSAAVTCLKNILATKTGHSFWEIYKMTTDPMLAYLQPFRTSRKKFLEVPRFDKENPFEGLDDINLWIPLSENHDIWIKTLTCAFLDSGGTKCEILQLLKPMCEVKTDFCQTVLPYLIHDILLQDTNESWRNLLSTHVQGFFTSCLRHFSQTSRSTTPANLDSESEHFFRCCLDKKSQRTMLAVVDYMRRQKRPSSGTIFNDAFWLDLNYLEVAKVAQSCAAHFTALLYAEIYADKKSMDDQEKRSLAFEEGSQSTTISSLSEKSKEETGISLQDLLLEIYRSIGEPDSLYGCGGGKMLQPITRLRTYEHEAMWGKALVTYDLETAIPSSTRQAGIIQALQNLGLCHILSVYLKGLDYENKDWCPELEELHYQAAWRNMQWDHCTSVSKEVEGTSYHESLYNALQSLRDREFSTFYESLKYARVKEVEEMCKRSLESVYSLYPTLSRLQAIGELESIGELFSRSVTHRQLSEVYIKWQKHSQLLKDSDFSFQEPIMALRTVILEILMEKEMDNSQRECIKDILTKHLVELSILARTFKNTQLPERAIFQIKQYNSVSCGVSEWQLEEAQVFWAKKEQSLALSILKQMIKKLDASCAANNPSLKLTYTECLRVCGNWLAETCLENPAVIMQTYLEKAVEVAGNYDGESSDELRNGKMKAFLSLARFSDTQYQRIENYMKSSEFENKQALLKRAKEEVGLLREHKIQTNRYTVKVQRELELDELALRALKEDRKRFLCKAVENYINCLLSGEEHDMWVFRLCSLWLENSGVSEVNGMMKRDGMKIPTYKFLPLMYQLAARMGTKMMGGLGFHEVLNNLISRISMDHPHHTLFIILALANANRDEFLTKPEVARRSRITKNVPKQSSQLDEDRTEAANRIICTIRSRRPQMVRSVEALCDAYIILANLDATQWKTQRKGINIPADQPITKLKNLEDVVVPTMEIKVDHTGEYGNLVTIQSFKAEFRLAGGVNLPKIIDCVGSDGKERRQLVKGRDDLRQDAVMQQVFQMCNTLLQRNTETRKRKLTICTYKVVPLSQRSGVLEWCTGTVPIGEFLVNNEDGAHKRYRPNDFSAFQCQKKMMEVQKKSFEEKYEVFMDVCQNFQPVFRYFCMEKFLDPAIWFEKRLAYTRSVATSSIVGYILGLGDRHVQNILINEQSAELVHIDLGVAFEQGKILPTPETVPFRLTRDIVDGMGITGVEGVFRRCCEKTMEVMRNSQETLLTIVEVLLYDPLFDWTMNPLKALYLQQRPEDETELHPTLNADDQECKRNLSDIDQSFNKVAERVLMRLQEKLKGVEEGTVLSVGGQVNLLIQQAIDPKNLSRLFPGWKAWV
- Assay Notes: Inhibition of ATM (unknown origin) assessed as remaining activity at 0.01 uM preincubated with compound for 30 mins followed by substrate addition and measured after 2 hrs by HTRF method relative to control
- Stated Conditions: time 2.5 hrs
Endpoint Name: Activity (%)

In [3]: df
Out[3]:
                               given_smiles  reading
0  CN(C)CCCOc1ccc(-c2ccc3ncc(N(C)C(=O)NC4CCCC4)nc3c2)cn1        2
1  CC(C)NC(=O)N(C)c1cnc2ccc(-c3ccc(OCCN4CCOCC4)nc3)cc2n1       94
2  CN(C)CCCOc1ccc(-c2ccc3ncc(N(C)C(=O)Nc4ccccc4Cl)nc3c2)cn1        3
3  CC(C)NC(=O)N(C)c1cnc2ccc(-c3ccc(OCCN(C)C)nc3)cc2n1       73

----------
- Assay Notes: Metabolic stability in human liver microsomes assessed as clearance at 1 uM in presence of NADPH-regenerating system by LC-MS/MS analysis
- Type: ADME, Microsome
Measured log10(CLH), listed per entry.
Endpoint Name: log10(CLH) (log10 of the value in mL/min/g)

>>> print(df.to_string())
                                   compound  reading
0  CC1CCC(NC(=O)N(C)c2cnc3ccc(-c4ccc(OCCCN(C)C)nc4)cc3n2)CC1 (stereo not given)     1.97
1  CC(C)NC(=O)N(C)c1cnc2ccc(-c3ccc(OCCCN4CCN(C)CC4)nc3)cc2n1     1.11
2  CC(C)NC(=O)N(C)c1cnc2ccc(-c3ccc(OC(C)CN(C)C)nc3)cc2n1 (stereo not given)     1.63
3  CC(C)NC(=O)N(C)c1cnc2ccc(-c3ccc(OCC4CCCN(C)C4)nc3)cc2n1 (stereo not given)     1.56
4  CCNC(=O)N(C)c1cnc2ccc(-c3ccc(OCCCN(C)C)nc3)cc2n1     2.10
5  CC(C)NC(=O)Nc1cnc2ccc(-c3ccc(OCCCN(C)C)nc3)cc2n1     1.97
6  CN(C)CCCOc1ccc(-c2ccc3ncc(NC(=O)NC4CCCC4)nc3c2)cn1     2.16
7  CC(C)NC(=O)N(C)c1cnc2ccc(-c3ccc(OCCCN4CCOCC4)nc3)cc2n1     1.38
8  CCCNC(=O)Nc1cnc2ccc(-c3ccc(OCCCN(C)C)nc3)cc2n1     2.08
9  CN(C)CCCOc1ccc(-c2ccc3ncc(N(C)C(=O)NC(C)(C)C)nc3c2)cn1     2.00

----------
- Assay Notes: Metabolic stability in human liver microsomes assessed as clearance at 1 uM in presence of NADPH-regenerating system by LC-MS/MS analysis
- Assay type: ADME, Microsome
Endpoint Name: log10 CLH (log10 of the value in mL/min/g)

>>> df
                               given_smiles  reading
0  CC(C)NC(=O)N(C)c1cnc2ccc(-c3ccc(OCCN(C)C)nc3)cc2n1     1.57
1  CN(C)CCCOc1ccc(-c2ccc3ncc(N(C)C(=O)NC4CCCC4)nc3c2)cn1     1.81
2  Cc1nc(OCCCN2CCCCC2)ccc1-c1ccc2ncc(N(C)C(=O)NC(C)C)nc2c1     0.48
3  CN(C)CCCOc1ccc(-c2ccc3ncc(N(C)C(=O)NC4CCCCC4)nc3c2)cn1     1.97
4  CN(C)CCCOc1ccc(-c2ccc3ncc(N(C)C(=O)Nc4ccccc4Cl)nc3c2)cn1     1.63
5  CN(C)CCCOc1ccc(-c2ccc3ncc(N(C)C(=O)N[C@]45C[C@@H]6C[C@H](C[C@@H](C6)C4)C5)nc3c2)cn1     1.28
6  CCCCNC(=O)N(C)c1cnc2ccc(-c3ccc(OCCCN(C)C)nc3)cc2n1     1.81
7  CCN(CC)CCCOc1ccc(-c2ccc3ncc(N(C)C(=O)NC(C)C)nc3c2)cn1     1.15
8  CCCNC(=O)N(C)c1cnc2ccc(-c3ccc(OCCCN(C)C)nc3)cc2n1     1.92

----------
- Assay Notes: Inhibition of PIK3 (unknown origin)
- Parameters: species or system Homo sapiens
pIC50: −log10 of the molar value.
Endpoint Name: pIC50

                               given_smiles  endpoint_name  reading
0  Cn1c(=O)n(-c2ccc(C(C)(C)C#N)cc2)c2c3cc(-c4cnc5ccccc5c4)ccc3ncc21          pIC50     8.40

----------
Measured Activity, listed per entry.
- Study Target: UniProt:Q13315
- Assay Notes: Inhibition of ATM (unknown origin) assessed as remaining activity at 0.01 uM preincubated with compound for 30 mins followed by substrate addition and measured after 2 hrs by HTRF method relative to control
- Stated Conditions: time 2.5 hrs
Endpoint Name: Activity (%)

In [3]: df
Out[3]:
                                   molecule    study_target  units_symbol  reading
0  COCCCOc1ccc(-c2ccc3ncc(N(C)C(=O)NC(C)C)nc3c2)cn1  UniProt:Q13315             %      103
1  CN(C)CCCOc1ccc(-c2ccc3ncc(N(C)C(=O)Nc4cccc(C(F)(F)F)c4)nc3c2)cn1  UniProt:Q13315             %       39
2  CC(C)NC(=O)N(C)c1cnc2ccc(-c3cnc(OCCCN4CCCCC4)cc3F)cc2n1  UniProt:Q13315             %       29
3  CC(C)NC(=O)N(C)c1cnc2ccc(-c3ccc(OCCN4CCCCC4)nc3)cc2n1  UniProt:Q13315             %       86
4  CC(C)NC(=O)N(C)c1cnc2ccc(-c3ccc(OCCCN(C)C)nc3)cc2n1  UniProt:Q13315             %       14
5  CC(C)NC(=O)N(C)c1cnc2ccc(-c3ccc(OCC4CCN(C)C4)nc3)cc2n1 (centres undefined)  UniProt:Q13315             %       72
6  CC(C)NC(=O)N(C)c1cnc2ccc(-c3ccc(OCC4CCCN(C)C4)nc3)cc2n1 (centres undefined)  UniProt:Q13315             %       43
7  CN(C)CCCOc1ccc(-c2ccc3ncc(N(C)C(=O)NC4CCCCC4)nc3c2)cn1  UniProt:Q13315             %       -1
8  CN(C)CCCOc1ccc(-c2ccc3ncc(N(C)C(=O)Nc4ccc(Cl)cc4)nc3c2)cn1  UniProt:Q13315             %       37

----------
- Study Target: Serine-protein kinase ATM (Homo sapiens)
- Assay Notes: Inhibition of flag tagged- ATM (unknown origin) expressed in Escherichia coli BL21 incubated for 20 mins in presence of ATP
pIC50: −log10 of the molar value.
Endpoint Name: pIC50

>>> print(df.to_string())
                               given_smiles                              study_target  reading
0  CC(C)(C#N)c1ccc(N2C(=O)OCc3cnc4ccc(-c5cnc6ccccc6c5)cc4c32)cc1  Serine-protein kinase ATM (Homo sapiens)     6.26

----------
- Study Target: UniProtKB Q13315
- Assay Notes: Inhibition of ATM (unknown origin) preincubated with compound for 30 mins followed by substrate addition and measured after 2 hrs by HTRF method
pIC50: −log10 of the molar value.
# binarize pIC50: threshold 8 inclusive, high side 1.0, low side 0.0

>>> print(df.to_string())
                                   compound  label
0  CN(C)CCCOc1ccc(-c2ccc3ncc(N(C)C(=O)NC4CCCCC4)nc3c2)cn1    1.0
1  CC(C)NC(=O)N(C)c1cnc2ccc(-c3cnc(OCCCN4CCCCC4)cc3F)cc2n1    1.0
2  CC(C)NC(=O)N(C)c1cnc2ccc(-c3ccc(OCC4CCCN(C)C4)nc3)cc2n1 (centres undefined)    0.0
3  CN(C)CCCOc1ccc(-c2ccc3ncc(N(C)C(=O)NC4CCCC4)nc3c2)cn1    1.0
4  CC(C)NC(=O)N(C)c1cnc2ccc(-c3ccc(OCCCN4CCN(C)CC4)nc3)cc2n1    1.0
5  CC(C)NC(=O)N(C)c1cnc2ccc(-c3ccc(OCCCN4CCCCC4)nc3F)cc2n1    1.0
